Test system: c-Src;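 further: 11-residue human phosphosite peptides and single-mutation variants displayed on the E. coli surface, counted by deep sequencing, each peptide's frequency after selection divided by its frequency in the unselected input library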;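 further: frequency after pTyr selection over input frequency; kinase dosed for 20-30% of maximal phosphorylation in three min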
Assay: phosphorylation enrichment, bacterial display (enrichment ratio); higher = better substrate or ligand; peptides without Tyr show the background
# binarize phosphorylation enrichment: threshold 0.7 inclusive, high side YES, low side NO

In: Is it the case that IDPYIYTPFGS [CYP3A4_Y432] has phosphorylation enrichment reaching or exceeding 0.7?
Out: YES

In: Has YIATQYSLCPR [LBR_Y166_R169C] a recorded phosphorylation enrichment greater than or equal to 0.7?
Out: YES

In: Does phosphorylation enrichment meet or surpass 0.7 for HQKKPYCHAHN [NRAP_Y53] ?
Out: NO

In: Record LGPSDYFGETA [PRKAR1A_Y323_I327T] ; criterion: phosphorylation enrichment no lower than 0.7. Met?
Out: NO

In: Test whether the sequence EGVPLYESATT [DCC_Y809] records phosphorylation enrichment of 0.7 or higher.
Out: YES

In: Does the reported phosphorylation enrichment for LVQAEYWHDPI [PPT1_Y185] fall at or above the 0.7 mark?
Out: NO

In: Entry SRGLAYPARPA [LEMD2_Y122] : is its phosphorylation enrichment no less than 0.7?
Out: NO

In: Is phosphorylation enrichment at least 0.7? Consider NREGVYTVFAP [TGFBI_Y537]
Out: YES

In: Does phosphorylation enrichment meet or surpass 0.7 for ANKNVYEVEPT [MEGF10_Y1075_R1072K] ?
Out: YES

In: Quick check: does YGMSTYITRED [FNDC3B_Y180] have phosphorylation enrichment greater than or equal to 0.7?
Out: YES

In: Is it the case that EEALHYLTRVE [SET_Y119] has phosphorylation enrichment reaching or exceeding 0.7?
Out: NO

In: Determine whether this sequence has phosphorylation enrichment no lower than 0.7: SVVVPYEPSEV [TP53_Y220_P223S]
Out: NO

In: Does EFGEVYKGTLK [EPHA2_Y628_M631T] have a reported phosphorylation enrichment of at least 0.7?
Out: NO

In: Quick check, phosphorylation enrichment >= 0.7? SFCFRYRCAAQ [SUMF1_Y344_R349Q_YF]
Out: NO
